Test: continuous administration for 10 days, toxicity
Assay type: in vivo
Details: in vivo, ip; continuous intraperitoneal injection for 10 days; read-out: daily dose at which no toxicity is observed
Property: NOAEL at 240 h

Asked: I would be grateful if you could share the reported NOAEL at 240 h for O=Cc1ccccc1 [benzaldehyde] .
Given back: ≥ 200 mg/kg/day
